Hey, just so you know, these numbers are from patent US12247018B2.

# System: RSV A2
# assay-remarks: RSV inhibition (cytopathic effect) in HEp-2 cells using Viral ToxGlo assay
# Format: cell-based
# test-settings: human respiratory syncytial virus; RSV A2, HEp-2 cells, MOI 0.5, 72 h p.i.
measured-endpoint: pEC50
Numbers only, as −log10 of the molar value.

chem_smiles=CC(C)NC(=O)c1cccc(Nc2ccc(C(=O)/N=C3\NCCC(=O)N3)cc2C(C)(C)C)c1 measured_endpoint=pEC50 recorded_measurement=7.48
chem_smiles=O=C(N=C1NCCCN1)c1ccc(Nc2cccc(OCC3CCCCC3)c2)c(C2CC2)c1 measured_endpoint=pEC50 recorded_measurement=6.76
chem_smiles=CC(C)NC(=O)c1cccc(Nc2ccc(C(=O)/N=C3\NCCCN3C)cc2C2CC2)c1 measured_endpoint=pEC50 recorded_measurement=7.11

Let us examine a further case.
Please look up its pEC50: "O=C(CCC1CCCCC1)Nc1cc(Nc2ccc(C(=O)N=C3NCCCN3)cc2C(F)(F)F)ccc1F"
6.33

* * *

Would you mind telling me the reported pEC50 of each entry?
# Test system: RSV A2
# assay-remarks: RSV inhibition (cytopathic effect) in HEp-2 cells using Viral ToxGlo assay
# Format: cell-based
# test-settings: human respiratory syncytial virus; RSV A2, HEp-2 cells, MOI 0.5, 72 h p.i.
Numbers only, as −log10 of the molar value.

These recorded examples may help you get a feel for the data.
compound=O=C(N=C1NCCCN1)c1ccc(Nc2cccc(C(=O)NC3CCOCC3)c2)c(C2CC2)c1 recorded_measurement=5.99
compound=CC(C)CCCCNC(=O)c1cccc(Nc2ccc(C(=O)N=C3NCCCN3)cc2C2CC2)c1 recorded_measurement=7.17
compound=O=C(N=C1NCCCN1)c1ccc(Nc2cccc(OC3COC3)c2)c(C2CC2)c1 recorded_measurement=6.38
compound=O=C1CCN/C(=N\C(=O)c2ccc(Nc3cccc(C(=O)NC4CC4)c3)c(C3CC3)c2)N1 recorded_measurement=6.38
compound=O=C(N=C1NCCCN1)c1ccc(Nc2cccc(OCC(F)(F)F)c2)c(C2CC2)c1 recorded_measurement=6.82
compound=O=C1CCN/C(=N\C(=O)c2ccc(Nc3cccc(C(=O)N4CCOCC4)c3Cl)c(C3CC3)c2)N1 recorded_measurement=7.72
compound=O=C(N=C1NCCCN1)c1ccc(Nc2cccc(S(=O)(=O)CCCC3CCCCC3)c2)c(C2CC2)c1 recorded_measurement=6.40
compound=O=C1CCN/C(=N\C(=O)c2ccc(Nc3cccc(C(=O)N4CCOCC4)c3)c(C3CC3)c2)N1 recorded_measurement=5.82

Dear colleague, could you please provide pEC50 for the compounds listed below?
1. O=C(N=C1NCCCN1)c1ccc(Nc2cccc(C(=O)NC3COC3)c2)c(C2CC2)c1
2. CC1(C)CN1C(=O)c1cccc(Nc2ccc(C(=O)N=C3NCCCN3)cc2C2CC2)c1
3. O=C(N=C1NCCCN1)c1ccc(Nc2cccc(C(O)CCCC3CCCCC3)c2)c(C2CC2)c1 (stereo not shown)
4. O=C1CCN/C(=N\C(=O)c2ccc(Nc3cccc(OCC4CCCCO4)c3)c(C3CC3)c2)N1 (stereo not shown)
5. CC1(NC(=O)c2cccc(Nc3ccc(C(=O)N=C4NCCCN4)cc3C3CC3)c2)CC1
6. CC(C)CCNC(=O)c1cccc(Nc2ccc(C(=O)N=C3NCCCN3)cc2C2CC2)c1

1. 5.56
2. 6.04
3. 7.36
4. 6.28
5. 7.47
6. 6.99

I have 2 compounds here; please give me pEC50 for each one.
1. CCC(C)NC(=O)c1cccc(Nc2ccc(C(=O)N=C3NCCCN3)cc2C2CC2)c1 (stereo not shown)
2. Cc1c(Nc2ccc(C(=O)N=C3NCCCN3)cc2C2CC2)cccc1C(=O)NC1(C#N)CC1

1: 7.40; 2: 5.76

* * *

Please go through the items and note down their EC50.
# Test system: RSV A2
# assay-remarks: RSV inhibition (cytopathic effect) in HEp-2 cells using Viral ToxGlo assay
# Format: cell-based
# test-settings: human respiratory syncytial virus; RSV A2, HEp-2 cells, MOI 0.5, 72 h p.i.
Answers are plain numbers, in nM.

Provide each entry's EC50 from the list below.
1. CC(C)CCN(C)C(=O)c1cccc(Nc2ccc(C(=O)N=C3NCCCN3)cc2C2CC2)c1 [compound 118]
2. O=C1CCN/C(=N\C(=O)c2ccc(Nc3cccc(OCCCC4CCCCC4)c3)c(C3CC3)c2)N1 [compound 97]
3. CC1(NC(=O)c2cccc(Nc3ccc(C(=O)/N=C4\NCCC(=O)N4)cc3C3CC3)c2)CC1 [compound 121]
4. CC1CN(C(=O)c2cccc(Nc3ccc(C(=O)/N=C4\NCCC(=O)N4)cc3C3CC3)c2Cl)CCO1 (stereo not shown) [compound 92]

1. 126
2. 25
3. 139
4. 2

* * *

# Test system: RSV A2
# assay-remarks: RSV inhibition (cytopathic effect) in HEp-2 cells using Viral ToxGlo assay
# Type: cell-based
# test-settings: human respiratory syncytial virus; RSV A2, HEp-2 cells, MOI 0.5, 72 h p.i.
Record form. Attribute: EC50. Fill in for each entry.
Give bare numbers, in nM.

Here is how some molecules turned out for EC50.
molecule="CC(C)CCCNC(=O)c1cccc(Nc2ccc(C(=O)N=C3NCCCN3)cc2C2CC2)c1 [compound 105]" tested_target="RSV A2" recorded_measurement=62
molecule="O=C(N=C1NCCCN1)c1ccc(Nc2cccc(C(=O)NC3CCOC3)c2)c(C2CC2)c1 (stereo not shown) [compound 155]" tested_target="RSV A2" recorded_measurement=949
molecule="Cc1c(Nc2ccc(C(=O)N=C3NCCCN3)cc2C2CC2)cccc1-c1ncc(Cl)[nH]1 [compound 141]" tested_target="RSV A2" recorded_measurement=370

From here, focus on the item given below.
Query: EC50; subject: O=C1CCN/C(=N\C(=O)c2ccc(Nc3cccc(OCC4COCCO4)c3Cl)c(C3CC3)c2)N1 (stereo not shown) [compound 93]
13

* * *

# Test system: RSV A2
# assay-remarks: RSV inhibition (cytopathic effect) in HEp-2 cells using Viral ToxGlo assay
# Format: cell-based
# test-settings: human respiratory syncytial virus; RSV A2, HEp-2 cells, MOI 0.5, 72 h p.i.
# Description: Protocol for Screening Antiviral Compounds for RSV Inhibition and Cytotoxicity Using Viral ToxGlo Assay […] Cell plates were further incubated inside a humid chamber for 72 h p.i at 37° C./5% CO2. […] Plates were incubated at room temperature, protected from light on a plate rocker for 20 minutes before measuring the luminescence on a spectrophotometer (Biotek Synergy HTX).
measured-endpoint: pEC50
Give bare numbers, as −log10 of the molar value.

Known pEC50 results, listed for orientation:
compound="CC(C)CCCOc1cccc(Nc2ccc(C(=O)N=C3NCCCN3)cc2C2CC2)c1 [compound 132]" recorded_measurement=6.59
compound="O=C(N=C1NCCCN1)c1ccc(Nc2ccnc(C(=O)NCCC3CCCCC3)c2)c(C2CC2)c1 [compound 138]" recorded_measurement=6.51
compound="CC(C)OCCOc1cccc(Nc2ccc(C(=O)N=C3NCCCN3)cc2C2CC2)c1 [compound 139]" recorded_measurement=6.47

Parameter requested: pEC50. Apply to each item below.
1. CC(C)CNC(=O)c1cccc(Nc2ccc(C(=O)N=C3NCCCN3)cc2C2CC2)c1 [compound 131]
2. CC1COCCN1C(=O)c1cccc(Nc2ccc(C(=O)/N=C3\NCCC(=O)N3)cc2C2CC2)c1Cl (centres unmarked) [compound 91]
3. O=C(N=C1NCCCN1)c1ccc(Nc2cccc(OC3CCC3)c2)c(C2CC2)c1 [compound 129]
4. CC(C)NC(=O)c1cccc(Nc2ccc(C(=O)/N=C3\NCCC(=O)N3)cc2C2CC2)c1 [compound 120]
5. Cc1c(N)cccc1Nc1ccc(C(=O)N=C2NCCCN2)cc1C1CC1 [compound 135]

1: 6.61; 2: 8.70; 3: 6.65; 4: 6.87; 5: 6.54

* * *

# Tested on: RSV A2
# assay-remarks: RSV inhibition (cytopathic effect) in HEp-2 cells using Viral ToxGlo assay
# Assay type: cell-based
# test-settings: human respiratory syncytial virus; RSV A2, HEp-2 cells, MOI 0.5, 72 h p.i.
Please use met for EC50 under 400 nM and not met for everything else, ties included.

compound="O=C1CCN/C(=N\\C(=O)c2ccc(Nc3cccc(OCC4COCCO4)c3)c(C3CC3)c2)N1 (stereo not shown) [compound 161]" tested_target="RSV A2" class="not met"

Would you kindly verify if EC50 of O=C(N=C1NCCCN1)c1ccc(Nc2cccc(-n3cc(CC4CCCCC4)nn3)c2)c(C2CC2)c1 [compound 119] is strictly less than 400 nM?
met

Quick check: EC50 of O=C1CCN/C(=N\C(=O)c2ccc(Nc3cccc(OCCC4COCCO4)c3)c(C3CC3)c2)N1 (stereo not shown) [compound 150] under 400 nM?
not met

API: query returns whether the compound falls strictly under 400 nM in EC50. Query: CC(C)CCS(=O)(=O)Nc1cccc(Nc2ccc(C(=O)/N=C3\NCCC(=O)N3)cc2C(C)(C)C)c1 [compound 94]
met

Does the reported EC50 of CN(C)C(=O)c1cccc(Nc2ccc(C(=O)N=C3NCCCN3)cc2C2CC2)c1 [compound 163] stay below 400 nM?
not met

Is 400 nM strictly greater than the compound's reported EC50? compound: O=C1CCN/C(=N\C(=O)c2ccc(Nc3cccc(OCC4CCCOC4)c3)c(C3CC3)c2)N1 (stereo not shown) [compound 134]
met

Check if EC50 falls below 400 nM for O=C(N=C1NCCCN1)c1ccc(Nc2cccc(C(=O)NC3CC(F)(F)C3)c2)c(C2CC2)c1 [compound 152] .
not met

Quick check: does O=C(N=C1NCCCN1)c1ccc(Nc2cccc(OC(F)F)c2)c(C2CC2)c1 [compound 112] have EC50 under 400 nM?
met

Please check: EC50 for O=C(N=C1NCCCN1)c1ccc(Nc2cccc(C(=O)NCC(F)(F)F)c2)c(C2CC2)c1 [compound 133] , strictly under 400 nM or not?
met

Is EC50 strictly under 400 nM for the entry CC(C)NC(=O)c1ccccc1Nc1ccc(C(=O)/N=C2\NCCC(=O)N2)cc1C(C)(C)C [compound 100] ?
met

Please determine if O=C1CCN/C(=N\C(=O)c2ccc(Nc3cccc(OCC4CCOCC4)c3)c(C3CC3)c2)N1 [compound 146] is below 400 nM in terms of EC50.
not met

For O=C(N=C1NCCCN1)c1ccc(Nc2cccc(C(=O)NC3CCCCC3)c2)c(C2CC2)c1 [compound 117] , is the recorded EC50 below the cut-off of 400 nM?
met

I'd appreciate it if you could check whether O=C(N=C1NCCCN1)c1ccc(Nc2cc(C(=O)NCCC3CCCCC3)ccn2)c(C(F)(F)F)c1 [compound 111] has EC50 smaller than 400 nM.
met

is_below(EC50, 400 nM) for O=C(N=C1NCCCN1)c1ccc(Nc2cccc(C(=O)NC3CC3)c2)c(C2CC2)c1 [compound 114] ?
met

Please let me know if O=C(N=C1NCCCN1)c1ccc(Nc2cccc(OCCCC3CCCCC3)c2)c(C2CC2)c1 [compound 115] shows EC50 below 400 nM.
met

Is 400 nM strictly greater than the compound's reported EC50? compound: CC(C)CCNC(=O)c1ccccc1Nc1ccc(C(=O)N=C2NCCCN2)cc1C1CC1 [compound 147]
not met
